# HEK-Blue activity, +100 nM BP, DF-1,000,000 values compiled below
- assaySystem: T1, interleukin 18 binding protein (IL-18BP) (UniProt O95998 31-194); further: unit not given here
- T1 sequence (looked up): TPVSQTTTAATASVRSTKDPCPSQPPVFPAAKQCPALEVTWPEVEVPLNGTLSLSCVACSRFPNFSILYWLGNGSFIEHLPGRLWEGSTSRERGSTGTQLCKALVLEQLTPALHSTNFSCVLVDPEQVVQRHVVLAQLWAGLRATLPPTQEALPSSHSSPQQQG
- testDescription: cell-based or functional assay
Please reply with the number alone, leaving off any unit.

IL-18 variant K53L, S55G (ligand) YFGKLESKLSVIRNLNDQVLFIDQGNRPLFEDMTDSDMRDNAPRTIFIISMYLDGQPRGMAVTISVKSEKISTLSSENKIISFKEMNPPDNIKDTKSDIIFFQRSVPGHDNKMQFESSSYEGYFLASEKERDLFKLILKKEDELGDRSIMFTVQNED ... 0.11

Which HEK-Blue activity, +100 nM BP, DF-1,000,000 value belongs to IL-18 variant K53Y, S55V (ligand) YFGKLESKLSVIRNLNDQVLFIDQGNRPLFEDMTDSDMRDNAPRTIFIISMYYDVQPRGMAVTISVKSEKISTLSSENKIISFKEMNPPDNIKDTKSDIIFFQRSVPGHDNKMQFESSSYEGYFLASEKERDLFKLILKKEDELGDRSIMFTVQNED ?
0.13

If you can, please state the reported HEK-Blue activity, +100 nM BP, DF-1,000,000 value of IL-18 variant K53D, S55Q, P107M (ligand) YFGKLESKLSVIRNLNDQVLFIDQGNRPLFEDMTDSDMRDNAPRTIFIISMYDDQQPRGMAVTISVKSEKISTLSSENKIISFKEMNPPDNIKDTKSDIIFFQRSVMGHDNKMQFESSSYEGYFLASEKERDLFKLILKKEDELGDRSIMFTVQNED .
0.13

Could you share which HEK-Blue activity, +100 nM BP, DF-1,000,000 value was measured for IL-18 variant K53H, S55M (ligand) YFGKLESKLSVIRNLNDQVLFIDQGNRPLFEDMTDSDMRDNAPRTIFIISMYHDMQPRGMAVTISVKSEKISTLSSENKIISFKEMNPPDNIKDTKSDIIFFQRSVPGHDNKMQFESSSYEGYFLASEKERDLFKLILKKEDELGDRSIMFTVQNED ?
0.09

GET /values?readout=HEK-Blue activity, +100 nM BP, DF-1,000,000&item= IL-18 variant K53V, S55Q (ligand) YFGKLESKLSVIRNLNDQVLFIDQGNRPLFEDMTDSDMRDNAPRTIFIISMYVDQQPRGMAVTISVKSEKISTLSSENKIISFKEMNPPDNIKDTKSDIIFFQRSVPGHDNKMQFESSSYEGYFLASEKERDLFKLILKKEDELGDRSIMFTVQNED
0.13

So what's the measured HEK-Blue activity, +100 nM BP, DF-1,000,000 for this one? IL-18 variant K53D, S55L (ligand) YFGKLESKLSVIRNLNDQVLFIDQGNRPLFEDMTDSDMRDNAPRTIFIISMYDDLQPRGMAVTISVKSEKISTLSSENKIISFKEMNPPDNIKDTKSDIIFFQRSVPGHDNKMQFESSSYEGYFLASEKERDLFKLILKKEDELGDRSIMFTVQNED
0.09

What does the data say about its HEK-Blue activity, +100 nM BP, DF-1,000,000? Entry: IL-18 variant K53G, S55P, R104K, H109Y (ligand) YFGKLESKLSVIRNLNDQVLFIDQGNRPLFEDMTDSDMRDNAPRTIFIISMYGDPQPRGMAVTISVKSEKISTLSSENKIISFKEMNPPDNIKDTKSDIIFFQKSVPGYDNKMQFESSSYEGYFLASEKERDLFKLILKKEDELGDRSIMFTVQNED
0.09

Query (binder): IL-18 variant K53H, S55I (ligand) YFGKLESKLSVIRNLNDQVLFIDQGNRPLFEDMTDSDMRDNAPRTIFIISMYHDIQPRGMAVTISVKSEKISTLSSENKIISFKEMNPPDNIKDTKSDIIFFQRSVPGHDNKMQFESSSYEGYFLASEKERDLFKLILKKEDELGDRSIMFTVQNED ; field requested: HEK-Blue activity, +100 nM BP, DF-1,000,000
0.1

For the binder shown here, IL-18 variant K53D, S55T, H109I (ligand) YFGKLESKLSVIRNLNDQVLFIDQGNRPLFEDMTDSDMRDNAPRTIFIISMYDDTQPRGMAVTISVKSEKISTLSSENKIISFKEMNPPDNIKDTKSDIIFFQRSVPGIDNKMQFESSSYEGYFLASEKERDLFKLILKKEDELGDRSIMFTVQNED , give the reported HEK-Blue activity, +100 nM BP, DF-1,000,000.
0.09

Consider the binder shown here: IL-18 variant T34N, S36N, D40E, N41G, K53S, S55Q, R104N, H109Y (ligand) YFGKLESKLSVIRNLNDQVLFIDQGNRPLFEDMNDNDMREGAPRTIFIISMYSDQQPRGMAVTISVKSEKISTLSSENKIISFKEMNPPDNIKDTKSDIIFFQNSVPGYDNKMQFESSSYEGYFLASEKERDLFKLILKKEDELGDRSIMFTVQNED What is its recorded HEK-Blue activity, +100 nM BP, DF-1,000,000?
0.09

Record request: HEK-Blue activity, +100 nM BP, DF-1,000,000 value, item IL-18 variant K53H, S55M, Q56H (ligand) YFGKLESKLSVIRNLNDQVLFIDQGNRPLFEDMTDSDMRDNAPRTIFIISMYHDMHPRGMAVTISVKSEKISTLSSENKIISFKEMNPPDNIKDTKSDIIFFQRSVPGHDNKMQFESSSYEGYFLASEKERDLFKLILKKEDELGDRSIMFTVQNED
0.09

Name the recorded HEK-Blue activity, +100 nM BP, DF-1,000,000 for IL-18 variant K53S, S55Y, P107M (ligand) YFGKLESKLSVIRNLNDQVLFIDQGNRPLFEDMTDSDMRDNAPRTIFIISMYSDYQPRGMAVTISVKSEKISTLSSENKIISFKEMNPPDNIKDTKSDIIFFQRSVMGHDNKMQFESSSYEGYFLASEKERDLFKLILKKEDELGDRSIMFTVQNED .
0.18

Return reported HEK-Blue activity, +100 nM BP, DF-1,000,000; argument: IL-18 variant K53L, S55E (ligand) YFGKLESKLSVIRNLNDQVLFIDQGNRPLFEDMTDSDMRDNAPRTIFIISMYLDEQPRGMAVTISVKSEKISTLSSENKIISFKEMNPPDNIKDTKSDIIFFQRSVPGHDNKMQFESSSYEGYFLASEKERDLFKLILKKEDELGDRSIMFTVQNED
0.09
